IC50 by entry:
- Tested on: A549/CDDP
- protocol-text: Growth inhibition of human A549/CDDP cells after 48 hrs by MTT assay
- Format: functional, cell-based
# value in nM; strip the unit string

INSERT INTO assay_data (smiles_notation, measured_target, meas_value) VALUES
  ('C[Se]c1ccc(N(C)c2nc(C)nc3ccccc23)cc1F', 'A549/CDDP', 11),
  ('COc1cccc2c1C(=O)c1c(O)c3c(c(O)c1C2=O)C[C@@](O)(C(=O)CO)C[C@@H]3O[C@H]1C[C@H](N)[C@H](O)[C@H](C)O1', 'A549/CDDP', 4590),
  ('COc1ccc(N(C)c2nc(C)nc3ccccc23)cc1', 'A549/CDDP', 9);

Incoming: Can you share its IC50? I mean this compound: C[Se]c1ccc(N(C)c2nc(C)nc3ccccc23)cc1
Outgoing: 9

Incoming: Entry to check: Cc1nc(N(C)c2ccc([Se]C#N)cc2)c2ccccc2n1
Outgoing: 32

Incoming: Entry to check: COc1ccc(/C=C\c2cc(OC)c(OC)c(OC)c2)cc1O
Outgoing: 17
